# TARGET_ENTITY: GST-Aq-NF-kB (Amphimedon queenslandica, UniProt A9Y5G7 2-389)
# Sequence: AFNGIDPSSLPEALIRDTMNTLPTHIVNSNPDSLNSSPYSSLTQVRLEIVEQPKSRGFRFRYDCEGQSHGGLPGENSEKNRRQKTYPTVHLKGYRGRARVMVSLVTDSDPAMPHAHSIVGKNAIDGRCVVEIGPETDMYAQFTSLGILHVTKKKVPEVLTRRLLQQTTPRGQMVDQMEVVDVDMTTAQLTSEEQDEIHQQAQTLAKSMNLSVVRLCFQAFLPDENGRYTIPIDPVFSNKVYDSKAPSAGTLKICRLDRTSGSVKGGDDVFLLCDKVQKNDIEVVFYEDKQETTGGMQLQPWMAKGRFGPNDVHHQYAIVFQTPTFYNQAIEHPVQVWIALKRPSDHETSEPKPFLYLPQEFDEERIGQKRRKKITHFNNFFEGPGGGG
# METHOD_DESCRIPTION: protein-binding microarray (PBM); PBM: ~300 nM protein, 6 mM HEPES pH 7.8, 80 mM KCl, 0.5 mM EDTA, 0.5 mM EGTA, 6% glycerol, 35 ng/ul poly-dIdC, 1% milk, 1 h, room temperature; high values mean tight binding
# RUN_PARAMETERS: dsDNA, one strand shown
PROPERTY_MEASURED: binding signal (z-score)

- CHAIN_SEQUENCE: "CCGATTAACATCAGGAAAGCCCATGATGTTAATCGGGTCTTGATTCGCTTGACGCTGCTG"
  PROPERTY_MEASURED: "binding signal"
  REPORTED_VALUE: 3.12
- CHAIN_SEQUENCE: "CCGATTAACATCACGAGATTCCCTGATGTTAATCGGGTCTTGATTCGCTTGACGCTGCTG"
  PROPERTY_MEASURED: "binding signal"
  REPORTED_VALUE: 3.38
- CHAIN_SEQUENCE: "CCGATTAACATCAAAATATTCCCTGATGTTAATCGGGTCTTGATTCGCTTGACGCTGCTG"
  PROPERTY_MEASURED: "binding signal"
  REPORTED_VALUE: 6.27
- CHAIN_SEQUENCE: "CCGATTAACATCAAGGGGGATTCTGATGTTAATCGGGTCTTGATTCGCTTGACGCTGCTG"
  PROPERTY_MEASURED: "binding signal"
  REPORTED_VALUE: 7.13
- CHAIN_SEQUENCE: "CCGATTAACATCAACTCGGGAAATGATGTTAATCGGGTCTTGATTCGCTTGACGCTGCTG"
  PROPERTY_MEASURED: "binding signal"
  REPORTED_VALUE: 1.73
- CHAIN_SEQUENCE: "CCGATTAACATCACAAACTCCCCTGATGTTAATCGGGTCTTGATTCGCTTGACGCTGCTG"
  PROPERTY_MEASURED: "binding signal"
  REPORTED_VALUE: 5.35
- CHAIN_SEQUENCE: "CCGATTAACATCAGGGGGAAGAATGATGTTAATCGGGTCTTGATTCGCTTGACGCTGCTG"
  PROPERTY_MEASURED: "binding signal"
  REPORTED_VALUE: 4.87
- CHAIN_SEQUENCE: "CCGATTAACATCAAAAAACTTCCTGATGTTAATCGGGTCTTGATTCGCTTGACGCTGCTG"
  PROPERTY_MEASURED: "binding signal"
  REPORTED_VALUE: 1.4
- CHAIN_SEQUENCE: "CCGATTAACATCAGAAATTCCCCTGATGTTAATCGGGTCTTGATTCGCTTGACGCTGCTG"
  PROPERTY_MEASURED: "binding signal"
  REPORTED_VALUE: 8.89
- CHAIN_SEQUENCE: "CCGATTAACATCAAATCTCCCCCTGATGTTAATCGGGTCTTGATTCGCTTGACGCTGCTG"
  PROPERTY_MEASURED: "binding signal"
  REPORTED_VALUE: 6.11
- CHAIN_SEQUENCE: "CCGATTAACATCAGGGAAGGACCTGATGTTAATCGGGTCTTGATTCGCTTGACGCTGCTG"
  PROPERTY_MEASURED: "binding signal"
  REPORTED_VALUE: 3.91
- CHAIN_SEQUENCE: "CCGATTAACATCAACAATTCCCCTGATGTTAATCGGGTCTTGATTCGCTTGACGCTGCTG"
  PROPERTY_MEASURED: "binding signal"
  REPORTED_VALUE: 5.93
- CHAIN_SEQUENCE: "CCGATTAACATCAACTATCCCCCTGATGTTAATCGGGTCTTGATTCGCTTGACGCTGCTG"
  PROPERTY_MEASURED: "binding signal"
  REPORTED_VALUE: 4.04
- CHAIN_SEQUENCE: "CCGATTAACATCAAAAAACCCCTTGATGTTAATCGGGTCTTGATTCGCTTGACGCTGCTG"
  PROPERTY_MEASURED: "binding signal"
  REPORTED_VALUE: 8
- CHAIN_SEQUENCE: "CCGATTAACATCAGGGGAGTAAATGATGTTAATCGGGTCTTGATTCGCTTGACGCTGCTG"
  PROPERTY_MEASURED: "binding signal"
  REPORTED_VALUE: 3
- CHAIN_SEQUENCE: "CCGATTAACATCAAAATTTCCGCTGATGTTAATCGGGTCTTGATTCGCTTGACGCTGCTG"
  PROPERTY_MEASURED: "binding signal"
  REPORTED_VALUE: 1.48
- CHAIN_SEQUENCE: "CCGATTAACATCACGAAACCCCCTGATGTTAATCGGGTCTTGATTCGCTTGACGCTGCTG"
  PROPERTY_MEASURED: "binding signal"
  REPORTED_VALUE: 6.37
- CHAIN_SEQUENCE: "CCGATTAACATCAGGGGAATGTATGATGTTAATCGGGTCTTGATTCGCTTGACGCTGCTG"
  PROPERTY_MEASURED: "binding signal"
  REPORTED_VALUE: 5.58

====

// reported binding signal for each item listed
# TARGET_ENTITY: GST-Aq-NF-kB (Amphimedon queenslandica, UniProt A9Y5G7 2-389)
# Sequence: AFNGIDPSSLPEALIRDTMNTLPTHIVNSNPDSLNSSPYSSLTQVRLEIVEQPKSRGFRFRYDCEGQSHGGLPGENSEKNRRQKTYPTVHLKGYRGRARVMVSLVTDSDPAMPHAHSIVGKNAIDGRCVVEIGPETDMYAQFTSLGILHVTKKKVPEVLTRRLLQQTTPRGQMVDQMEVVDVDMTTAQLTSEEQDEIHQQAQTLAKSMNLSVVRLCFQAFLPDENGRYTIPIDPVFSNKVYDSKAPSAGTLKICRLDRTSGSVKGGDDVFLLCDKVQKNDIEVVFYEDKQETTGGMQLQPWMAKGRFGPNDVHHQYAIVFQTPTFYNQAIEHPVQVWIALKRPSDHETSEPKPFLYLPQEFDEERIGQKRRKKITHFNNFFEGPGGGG
# METHOD_DESCRIPTION: protein-binding microarray (PBM); PBM: ~300 nM protein, 6 mM HEPES pH 7.8, 80 mM KCl, 0.5 mM EDTA, 0.5 mM EGTA, 6% glycerol, 35 ng/ul poly-dIdC, 1% milk, 1 h, room temperature; high values mean tight binding
# RUN_PARAMETERS: dsDNA, one strand shown
PROPERTY_MEASURED: binding signal (z-score)

- CHAIN_SEQUENCE: "CCGATTAACATCAGAAAGTCCCATGATGTTAATCGGGTCTTGATTCGCTTGACGCTGCTG"
  REPORTED_VALUE: 5.57
- CHAIN_SEQUENCE: "CCGATTAACATCAGGGAATCCCCTGATGTTAATCGGGTCTTGATTCGCTTGACGCTGCTG"
  REPORTED_VALUE: 12.1
- CHAIN_SEQUENCE: "CCGATTAACATCAAGGGGGGATGTGATGTTAATCGGGTCTTGATTCGCTTGACGCTGCTG"
  REPORTED_VALUE: 4.34
- CHAIN_SEQUENCE: "CCGATTAACATCATGGGTGGGAATGATGTTAATCGGGTCTTGATTCGCTTGACGCTGCTG"
  REPORTED_VALUE: 2.5
- CHAIN_SEQUENCE: "CCGATTAACATCACGGAAAGTACTGATGTTAATCGGGTCTTGATTCGCTTGACGCTGCTG"
  REPORTED_VALUE: 2.92

====

# TARGET_ENTITY: GST-Ap-NF-kB RHD (Exaiptasia pallida (Aiptasia), UniProt A0A913YAJ5 2-422)
# Sequence: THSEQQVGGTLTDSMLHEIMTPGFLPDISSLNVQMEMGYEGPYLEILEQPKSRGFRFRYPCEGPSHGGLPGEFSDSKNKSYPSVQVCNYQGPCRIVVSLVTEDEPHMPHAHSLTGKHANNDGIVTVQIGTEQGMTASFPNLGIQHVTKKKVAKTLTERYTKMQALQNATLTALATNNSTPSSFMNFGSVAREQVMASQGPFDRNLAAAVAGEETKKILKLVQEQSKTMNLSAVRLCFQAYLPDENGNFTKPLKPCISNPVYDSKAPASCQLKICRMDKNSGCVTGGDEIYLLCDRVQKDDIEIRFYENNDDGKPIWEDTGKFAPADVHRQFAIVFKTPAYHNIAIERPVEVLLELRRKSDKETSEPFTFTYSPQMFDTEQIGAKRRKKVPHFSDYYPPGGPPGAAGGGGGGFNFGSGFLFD
# METHOD_DESCRIPTION: protein-binding microarray (PBM); PBM: ~300 nM protein, 6 mM HEPES pH 7.8, 80 mM KCl, 0.5 mM EDTA, 0.5 mM EGTA, 6% glycerol, 35 ng/ul poly-dIdC, 1% milk, 1 h, room temperature; Ap Aiptasia and Nv Nematostella (sea anemones) / Co Capsaspora / Aq Amphimedon (sponge) / Dm Drosophila / Hu human; RHD is the Rel homology domain; high values mean tight binding
# RUN_PARAMETERS: dsDNA, one strand shown

- CHAIN_SEQUENCE: "CCGATTAACATCACAACTTCCCCTGATGTTAATCGGGTCTTGATTCGCTTGACGCTGCTG"
  binding signal / z-score: 6.77
- CHAIN_SEQUENCE: "CCGATTAACATCAAAGAGTCCCCTGATGTTAATCGGGTCTTGATTCGCTTGACGCTGCTG"
  binding signal / z-score: 6.56
- CHAIN_SEQUENCE: "CCGATTAACATCATTCGGGAAAATGATGTTAATCGGGTCTTGATTCGCTTGACGCTGCTG"
  binding signal / z-score: 1.48
- CHAIN_SEQUENCE: "CCGATTAACATCACCCGTTCCCCTGATGTTAATCGGGTCTTGATTCGCTTGACGCTGCTG"
  binding signal / z-score: 5.61
- CHAIN_SEQUENCE: "CCGATTAACATCAAGCAATTCCCTGATGTTAATCGGGTCTTGATTCGCTTGACGCTGCTG"
  binding signal / z-score: 3.2
